B1: RAD51 (parent)
chain: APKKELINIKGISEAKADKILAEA

Variants of: B1
RUN_DESCRIPTION: protein stability index of a GFP-peptide fusion (GPS, HEK-293T) (PSI 1-6); higher = more stable;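 also: lentivirally expressed fusions sorted by FACS into six bins by GFP to DsRed ratio, PSI derived from sequencing read proportions per bin multiplied by bin number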
RUN_CONDITIONS: c terminus: a fixed tail appended
ASSAY_METRIC: protein stability index
Answers are plain numbers.

The cases that follow already have their protein stability index on record.
A17Y    4.08
A17D    5.51
L6F    4.4
A17Q    5.11

List reported protein stability index for each of these variants:
1. A17E
2. A24R
3. A1W
4. E14P
5. D18Y
6. S13N

Result block:
5.22
4.83
3.75
4.96
2.63
4.65

List reported protein stability index for each of these variants:
1. A22K
2. G11V

Result block:
5.24
4.37
